System name: P. falciparum apicoplast DNA polymerase (Pf-apPOL) (Plasmodium falciparum)
Assay text: Fluorescence-based high-throughput DNA polymerase assay (molecular beacon), primary screen and dose-response
Assay type: biochemical
Condition set: conc. 80; 5'; DRC-2
Text: The HT assay employs a molecular beacon, a stem-loop DNA template with a Cy3 dye and the Black Hole Quencher on the 3′ and 5′ ends of the DNA, respectively. Pf-apPOL concentration is based on a calculated absorptivity of ε280 = 56750 M^−1 cm^−1. […] To identify apPOL inhibitors we utilised our previously developed high-throughput DNA polymerase assay. […] The assay accurately recapitulates the kinetic behaviour of apPOL, as measured through more conventional low-throughput gel-based assays. […]
The following compounds are listed with their measured % inhibition Apo pol 5' values.
Quantity: % inhibition Apo pol 5'

>>> measured("Cc1cccc(-c2nnc3ccc(NS(=O)(=O)c4ccc(C)c(C)c4)nn23)c1")
"17%"
>>> measured("O=C(NCC1CCN(C2CCCC2)CC1)C(=O)NC1CCCC1")
"45%"
>>> measured("Cc1cc(C)cc(-n2nc3c(c2NC(=O)c2ccco2)CSC3)c1")
"54%"
>>> measured("COc1ccc(C=C2Oc3c(ccc4c3CN(c3ccc5c(c3)OCO5)CO4)C2=O)cc1OC")
"45%"

---

System name: P. falciparum apicoplast DNA polymerase (Pf-apPOL) (Plasmodium falciparum, UniProt Q8ILY1)
Sequence (Q8ILY1 entry or part of it): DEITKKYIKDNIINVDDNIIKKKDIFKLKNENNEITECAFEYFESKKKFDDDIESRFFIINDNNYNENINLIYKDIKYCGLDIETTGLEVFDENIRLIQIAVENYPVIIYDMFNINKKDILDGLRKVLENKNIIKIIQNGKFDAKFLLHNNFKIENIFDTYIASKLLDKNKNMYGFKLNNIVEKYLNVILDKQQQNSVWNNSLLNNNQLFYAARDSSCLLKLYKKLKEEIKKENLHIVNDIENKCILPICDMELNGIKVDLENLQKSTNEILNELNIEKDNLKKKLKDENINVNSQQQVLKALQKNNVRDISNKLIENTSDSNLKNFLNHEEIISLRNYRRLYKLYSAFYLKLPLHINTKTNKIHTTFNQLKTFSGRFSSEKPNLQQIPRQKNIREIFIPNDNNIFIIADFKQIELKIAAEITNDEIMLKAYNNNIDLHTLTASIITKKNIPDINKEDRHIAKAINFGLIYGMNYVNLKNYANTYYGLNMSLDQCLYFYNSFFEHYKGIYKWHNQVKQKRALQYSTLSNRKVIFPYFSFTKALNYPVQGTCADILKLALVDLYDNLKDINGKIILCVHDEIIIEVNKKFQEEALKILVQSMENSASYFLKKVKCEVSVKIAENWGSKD
Assay text: Fluorescence-based high-throughput DNA polymerase assay (molecular beacon), primary screen and dose-response;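 on % inhibition apPOL 180': test concentration in µM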
Type: biochemical
Condition set: DRC-2; 180'; concentration 80
Entry flag: 1 if % inhibition apPOL 180' reaches 70%; 0 if it does not.

>>> assigned_label("O=C(CSc1nnc(-c2ccncc2)[nH]1)c1ccc(O)c(O)c1")
1
>>> assigned_label("CC(=O)Nc1cc(C(=O)NC(C)C)c2ccc(C)nc2c1")
1
>>> assigned_label("COc1ccc2c(c1)C(c1ccccc1OC)CC(=O)O2 (stereo not shown)")
1
>>> assigned_label("Cc1ccccc1C(=O)N1CCc2c(nc3cc(-c4ccccc4)[nH]n3c2=O)C1")
0
>>> assigned_label("CCCCOC(=O)CCCCCN1C(=O)C(=Cc2ccc(OC)cc2)SC1=S")
1
>>> assigned_label("O=c1[nH]c2ccc(Br)cc2c(-c2ccccc2)c1C1=NNC(c2ccco2)C1 (stereo not shown)")
1
>>> assigned_label("O=C(Nc1c2c(nn1-c1ccc(Oc3ccccc3)cc1)CSC2)c1ccco1")
1
>>> assigned_label("N#Cc1c(C2CCCCC2)nc(Sc2ccc(C(F)(F)F)cc2[N+](=O)[O-])[nH]c1=O")
1
>>> assigned_label("O=c1cc(-c2ccccc2)oc2c(O)c(O)ccc12")
0
>>> assigned_label("O=[N+]([O-])c1ccc(/C=C/c2ccc3ccccc3n2)o1")
0
>>> assigned_label("Cc1cccc2c(C(=O)NC(C)C)cc(N(C)C)nc12")
0
>>> assigned_label("COc1ccc(C)cc1NC(=O)Cn1ccc2c(=O)[nH]ccc21 [Molecule 15, COc1ccc(cc1NC(=O)Cn1ccc2c1cc[nH]c2=O)C]")
0
>>> assigned_label("N#CC(=NNc1cc(C(F)(F)F)cc(C(F)(F)F)c1)C(=O)c1ccco1")
1
>>> assigned_label("O=C1N=C(Nc2cccc(Cl)c2Cl)S/C1=C\\c1ccco1 [Molecule 3, O=C1N=C(S/C/1=C\\c1ccco1)Nc1cccc(c1Cl)Cl]")
0
>>> assigned_label("COc1ccc(-c2cc3nc4c(c(=O)n3[nH]2)CCN(C(=O)CCc2ccccc2)C4)cc1")
0
>>> assigned_label("OC(C#Cc1ccccc1)c1ccco1 (stereo not shown)")
0

---

System name: P. falciparum apicoplast DNA polymerase (Pf-apPOL) (Plasmodium falciparum, UniProt Q8ILY1)
Assay text: Fluorescence-based high-throughput DNA polymerase assay (molecular beacon), primary screen and dose-response;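 on % inhibition apPOL 180': test concentration in µM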
Format: biochemical
Condition set: DRC-2; concentration 20; 180'
Overview of recorded % inhibition apPOL 180' for various molecules
Quantity: % inhibition apPOL 180'

>>> measured("O=C1c2ccccc2C(=O)c2c1oc1c3c(ccc21)OCN(C1CCCC1)C3")
"63%"
>>> measured("Oc1cccnc1/N=C/c1cc(I)cc(I)c1O")
"54%"
>>> measured("O=C(Cn1ccc2c(=O)[nH]ccc21)Nc1ccccc1Cl [Molecule 19, O=C(Cn1ccc2c1cc[nH]c2=O)Nc1ccccc1Cl]")
"77%"
>>> measured("COc1cc(/C=C2\\C(=O)N(c3ccc(C(=O)O)cc3)N=C2C(F)(F)F)ccc1OCC(C)C")
"40%"
>>> measured("COc1ccc(NC(=O)Cn2nc3c(cc2=O)CCC3)cc1Cl")
"75%"
>>> measured("Cc1ccc(C2=N/C(=C\\c3ccc(I)o3)C(=O)O2)cc1[N+](=O)[O-]")
"51%"

---

System name: P. falciparum apicoplast DNA polymerase (Pf-apPOL) (Plasmodium falciparum)
Assay text: Fluorescence-based high-throughput DNA polymerase assay (molecular beacon), primary screen and dose-response
Format: biochemical
Condition set: DRC-1; 10'; concentration 10
Quantity: % inhibition Apo pol 10'

>>> measured("COc1ccccc1CCC(=O)N1CCc2c(nc3cc(-c4ccccc4)[nH]n3c2=O)C1")
"67%"
>>> measured("Cl.NC(CO)C(=O)NNCc1ccc(O)c(O)c1O (centres unmarked)")
"15.4444%"
>>> measured("O=C(c1c[nH]c2ncccc12)N1CCCCCC1 [Molecule 51, O=C(c1c[nH]c2c1cccn2)N1CCCCCC1]")
"7.159%"
>>> measured("O=C1C(=Cc2ccccc2O)Oc2ccc(O)cc21")
"3.3875%"
>>> measured("O=C1CCCC2=C1C(c1ccccn1)C1=C(CCCC1=O)O2")
"33.5344%"
>>> measured("O=C(CSc1nc2ccccc2s1)Nc1ncc([N+](=O)[O-])s1")
"61.6987%"
>>> measured("Cc1cc(C)c(O)c(/N=C/c2cc([N+](=O)[O-])cc(Br)c2O)c1")
"12.3955%"
>>> measured("COc1cc(/C=C2\\S/C(=N/C(C)=O)NC2=O)cc(Br)c1OCC(=O)O")
"17.12%"
>>> measured("Cc1nc(/N=N/c2ccc(C(=O)[O-])cc2)c(COP(=O)([O-])[O-])c(C=O)c1O.[Na+].[Na+].[Na+]")
"82.6072%"
>>> measured("O=[N+]([O-])/C=C/c1ccc(-c2ccc(Br)cc2)o1")
"48.5342%"
>>> measured("CC(C)(C)OC(=O)COc1ccc2cc(-c3ccccc3)c(=O)oc2c1")
"3.988%"
>>> measured("O=C(O)CCS(=O)(=O)c1ccc(-c2ccc(S(=O)(=O)CCC(=O)O)cc2)cc1")
"64.9587%"
>>> measured("O=[N+]([O-])c1cc2c(cc1CN1CCCCCC1)OCO2")
"20.8655%"
>>> measured("O=C(O)CC1=NN(c2cccc([N+](=O)[O-])c2)C(=O)C1")
"61.4137%"
>>> measured("O=[N+]([O-])c1ccc(/C=C/c2ccc3ccccc3n2)o1")
"70.3482%"
>>> measured("O=C1C(=Cc2ccncc2)Oc2c1ccc1c2CN(Cc2ccc3c(c2)OCO3)CO1")
"20.9046%"
>>> measured("N#Cc1c(C2CCCCC2)nc(Sc2ccc(C(F)(F)F)cc2[N+](=O)[O-])[nH]c1=O")
"58.5642%"

---

System name: P. falciparum apicoplast DNA polymerase (Pf-apPOL) (Plasmodium falciparum)
Assay text: Fluorescence-based high-throughput DNA polymerase assay (molecular beacon), primary screen and dose-response
Format: biochemical
Condition set: DRC-1; 180'; concentration 2.5
Quantity: % inhibition apPOL 180'

>>> measured("COc1ccc(-c2cc(=O)c3cc(O)ccc3o2)cc1OC")
"2.832%"
>>> measured("COc1ccc(S(=O)(=O)/N=C2\\NC(=O)/C(=C3\\C(=O)Nc4ccc([N+](=O)[O-])cc43)S2)cc1")
"-5.136%"
>>> measured("COc1ccc(-c2c(C(F)(F)F)nn3c(=O)cc(-c4cccc([N+](=O)[O-])c4)[nH]c23)cc1")
"12.6653%"
>>> measured("CC(NC(=O)Cc1cc(=O)[nH]c(SCc2cccc(Cl)c2)n1)c1ccccc1 (stereo not shown)")
"-10.8024%"
>>> measured("O=C(Nc1nnc(-c2ccno2)o1)c1ccc2c(c1)OCO2")
"-15.466%"
>>> measured("O=C(Nc1nnc(-c2ccno2)o1)c1ccc2ncsc2c1")
"-12.5523%"
>>> measured("CCN1C(=O)C(=Cc2cccc(OC)c2O)SC1=S")
"5.183%"
>>> measured("O=C1c2ccccc2C(=O)N1Oc1ccc([N+](=O)[O-])c([N+](=O)[O-])c1")
"-1.453%"
>>> measured("CN(C)C=CC(=O)c1ccccn1")
"-0.4261%"
>>> measured("O=c1cc(CN2CCCCC2)c2cc3c(cc2o1)OCO3")
"3.723%"
>>> measured("O=C(Nc1ncc([N+](=O)[O-])s1)c1ccc2c(c1)C(=O)N(N1C(=O)c3ccccc3C1=O)C2=O")
"-2.09%"
>>> measured("COCC(=O)Nc1c(-c2cccc(F)c2)nc2cc(C)ccn12")
"-2.445%"
>>> measured("O=C(Nc1nnc(-c2cccs2)o1)c1ccc([N+](=O)[O-])o1")
"-4.1234%"
>>> measured("OC(C#Cc1ccccc1)c1ccco1 (stereo not shown)")
"5.809%"
>>> measured("CCOc1ccc(/C=C2\\N=C(c3cc([N+](=O)[O-])cc([N+](=O)[O-])c3)OC2=O)cc1")
"6.537%"
>>> measured("N#CC(=NNc1cc(C(F)(F)F)cc(C(F)(F)F)c1)C(=O)c1ccco1")
"13.2581%"
